# credit: patent US20180185450A1

Experimental Target: human glucagon receptor (human, UniProt P47871 26-477)
Sequence (P47871 26-477): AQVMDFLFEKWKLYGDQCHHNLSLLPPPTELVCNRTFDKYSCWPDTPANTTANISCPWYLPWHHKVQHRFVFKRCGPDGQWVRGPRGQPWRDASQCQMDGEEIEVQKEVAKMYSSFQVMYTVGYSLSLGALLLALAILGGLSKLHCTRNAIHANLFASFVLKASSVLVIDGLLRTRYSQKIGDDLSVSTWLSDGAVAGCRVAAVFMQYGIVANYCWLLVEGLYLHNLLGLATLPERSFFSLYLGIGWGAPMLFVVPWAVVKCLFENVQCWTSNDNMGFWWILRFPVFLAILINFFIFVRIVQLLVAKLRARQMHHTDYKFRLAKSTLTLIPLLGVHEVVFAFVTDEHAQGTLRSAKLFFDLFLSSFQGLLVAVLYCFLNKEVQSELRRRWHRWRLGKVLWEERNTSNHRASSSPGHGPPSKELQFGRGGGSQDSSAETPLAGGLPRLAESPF
Assay Summary: cell-based or functional assay
Numbered stars: 1 amine (or outer) side, 2 acyl side, 3 side chain; on linkers, the order of the positions; unused ones are H or OH. Side chains are listed from the residue outwards. Ends that are not written are not given here. γGlu = O=C(O)[C@H](CCC(=O)[*:2])N[*:1]; x53 = not defined here
Lab note: anything with EC50 hGlucagon-R (cAMP) below 4 pM is marked Condition met; values at 4 pM or higher are marked Condition not met.

1. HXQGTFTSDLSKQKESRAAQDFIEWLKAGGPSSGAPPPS (dSer at 2; K(γE-x76) at 14; C-terminal NH2) [SEQ ID NO: 59] :: Condition not met
2. HXQGTFTSDLSKQKDSRRAQDFIEWLKKGGPSSGAPPPS (dSer at 2; K(γE-x53) at 14; C-terminal NH2) [SEQ ID NO: 84] :: Condition not met
3. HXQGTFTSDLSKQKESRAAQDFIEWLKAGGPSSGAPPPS (dSer at 2; K(γE-x77) at 14; C-terminal NH2) [SEQ ID NO: 60] :: Condition not met
4. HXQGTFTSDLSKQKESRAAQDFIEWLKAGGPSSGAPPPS (dSer at 2; K(GABA-x74) at 14; C-terminal NH2) [SEQ ID NO: 56] :: Condition not met

Please find the next binder below.
Please determine if HSHGTFTSDLSKQK([γGlu-x53])ESRRAQDFIEWLKAGGPSSGAPPPS-NH2 (reading uncertain) [SEQ ID NO: 208] is below 4 pM in terms of EC50 hGlucagon-R (cAMP).
Condition met
